assay: Phase solubility in deionized water (HPLC); format: physicochemical; conditions: aqueous solubility measurements, supplement
Assay readout: pH of mixture

Look up pH of mixture: O=c1c2nc(Br)n([C@@H]3O[C@@H]4COP(=O)([S-])O[C@H]4[C@H]3O)c2nc2[nH]c(-c3ccccc3)cn12.[Na+] (some centres unmarked) [cGMPSA‐Na]
5,45

Look up pH of mixture: NC(CO)(CO)CO.O=c1c2nc(Br)n([C@@H]3O[C@@H]4CO[P@@](O)(=S)O[C@H]4[C@H]3O)c2nc2[nH]c(-c3ccccc3)cn12 [cGMPSA‐Tris]
8,45

Look up pH of mixture: O=c1c2nc(Br)n([C@@H]3O[C@@H]4CO[P@@](O)(=S)O[C@H]4[C@H]3O)c2nc2[nH]c(-c3ccccc3)cn12.O=c1c2nc(Br)n([C@@H]3O[C@@H]4CO[P@@](O)(=S)O[C@H]4[C@H]3O)c2nc2[nH]c(-c3ccccc3)cn12.c1ccc(CNCCNCc2ccccc2)cc1 [cGMPSA‐BZ]
6,81

Look up pH of mixture: O=c1c2nc(Br)n([C@@H]3O[C@@H]4CO[P@@](O)(=S)O[C@H]4[C@H]3O)c2nc2[nH]c(-c3ccccc3)cn12.c1ccc(CCNCc2ccccc2)cc1 [cGMPSA‐Bnet]
7,17

Look up pH of mixture: O=c1c2nc(Br)n([C@@H]3O[C@@H]4COP(=O)([S-])O[C@H]4[C@H]3O)c2nc2[nH]c(-c3ccccc3)cn12.O=c1c2nc(Br)n([C@@H]3O[C@@H]4COP(=O)([S-])O[C@H]4[C@H]3O)c2nc2[nH]c(-c3ccccc3)cn12.[Ca+2] (some centres unmarked) [cGMPSA‐Ca]
6,88

Look up pH of mixture: O=c1c2nc(Br)n([C@@H]3O[C@@H]4COP(=O)(S)O[C@H]4[C@H]3O)c2nc2[nH]c(-c3ccccc3)cn12 (some centres unmarked) [cGMPSA‐H]
2,47

Look up pH of mixture: O=c1c2nc(Br)n(C3OC4COP(O)(=S)OC4C3O)c2nc2[nH]c(-c3ccccc3)cn12 (centres unmarked) [cGMPSA‐TEA]
4,38

Look up pH of mixture: N.O=c1c2nc(Br)n([C@@H]3O[C@@H]4COP(=O)(S)O[C@H]4[C@H]3O)c2nc2[nH]c(-c3ccccc3)cn12 (some centres unmarked) [cGMPSA‐NH4]
3,16
